- TARGET_SYSTEM: T1, UNK ZnF1-3 (human, UniProt Q9C0B0 31-174)
- T1 sequence: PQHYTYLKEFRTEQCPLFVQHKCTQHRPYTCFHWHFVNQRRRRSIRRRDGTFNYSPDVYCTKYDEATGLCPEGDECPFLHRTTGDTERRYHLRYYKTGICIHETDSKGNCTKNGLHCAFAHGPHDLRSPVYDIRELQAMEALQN
- METHOD_SUMMARY: nsRBNS (natural sequence RNA bind-n-seq); RBNS binding buffer (assumed for nsRBNS): 25 mM Tris pH 7.5, 150 mM KCl, 3 mM MgCl2, 0.01% Triton X-100, 500 ug/ml BSA, 20 U/ml SUPERase-In, 4 C; UNK is unkempt and MSI1 is Musashi-1; names of the RNAs are library labels; protein concentration not given here; high values mean tight binding
The full ranking holds about 24,000 sequences; the median of “enrichment r” is about 0.99, and the highest 2% start at about 3.7. The entries come from a sample that favours the highest values as a whole.
Task for the reader: assign each of the following binders its reported binding signal.
Give bare numbers, in enrichment R.

Completed entries (count: 5):
INSERT INTO measurements (binder, unit_label, numeric_result) VALUES
  ('chr4:125586161:125586162:-_ENSG00000151458_ENST00000504087|hu_mus|FALSE|FALSE (ssRNA) RNA: GGGAGUUCUACAGUCCGACGAUCCACGACGUCCUAAACAGUUGAUUUACAAAAUUUAAAUAUUUGAAUUUCAAAAAUAGCCAUUUAUUAUUAUUUUUUUAUUUGUGGGACCGUUUCUUAUCUUUGUAAUAGAGAAGUCAUUGUCAACAGAGGAUUGAGCAUCA', 'enrichment R', 3.35),
  ('chr10:123500321:123500322:-_ENSG00000107669_ENST00000369043|hu_hu|motif|central (ssRNA) RNA: GGGAGUUCUACAGUCCGACGAUCACGUUAAGAAACUACACACAACAAAUAUUUGCAAAAUGAAUGAAAAAUAGGAUAAAGCGGUUUAAAAGUCAACAUAGUAAUAUUUAUCUAAAUAAUUUUAAUCAAAUGUACAACAUAUUUCAACAGAGGAUUGAGCAUCA', 'enrichment R', 6.73),
  ('chr19:46159329:46159330:+_ENSMUSG00000015176_ENSMUST00000165017|mus_hu|FALSE|FALSE (ssRNA) RNA: GGGAGUUCUACAGUCCGACGAUCGGUCAAGUUGUCAAAAAAUGUCUUUCAACAGUAGAAAAGUUUGCUUUCAAAUUAAAAAACAAAGCACGUAUUGCAAACAUCGUGUAAUGAUAAAAUUACAGAAAAAAAUAUAUUCAGAAUCAACAGAGGAUUGAGCAUCA', 'enrichment R', 6.25),
  ('chr19:53454881:53454882:-_ENSMUSG00000025024_ENSMUST00000025997|mus_mus|motif|central (ssRNA) RNA: GGGAGUUCUACAGUCCGACGAUCGUUUCAUUCUACCAAAGCCAAACAAUGACAACAAUGUAUCUUCCUUACUCAGCAUCGGAGCAAUCAGUUACCUUUAGAAAAAUACAAGGAUAAAAAGGAGAGUGUAAAGUAAAGCCCUGCCAACAGAGGAUUGAGCAUCA', 'enrichment R', 1.52),
  ('chr13:100518589:100518590:+_ENSG00000125246_ENST00000339105|hu_hu|FALSE|FALSE (ssRNA) RNA: GGGAGUUCUACAGUCCGACGAUCUUCUCGUGACUGUCUAAGCAGCCCAGCUCCAUCUCGAAAGUCAAUGUACACCAGAUCUAUGGCUUGGAGACCAAAGGCUUUCGCUAUGACAACAAUCUUUUGCCGGGCGUAGAGAAUAUCCAACAGAGGAUUGAGCAUCA', 'enrichment R', 0.61);

Below are 2 binders. Give each one its binding signal.
1. chr19:15271055:15271056:-_ENSG00000074181_ENST00000263388|hu_hu|FALSE|FALSE (ssRNA) RNA: GGGAGUUCUACAGUCCGACGAUCCAUAUAUAUAUUUUGUAAAAAAUAAUAAUAAUAAGUUUGUUUAAAUGAAUUUGUUUCUAUACAAAAUGUAAAAAAAAAAAGAAAAAUAAAAAUAAUAAUAAUUCAUUCAUGUCAGAGUGUCAACAGAGGAUUGAGCAUCA
2. 207631549_207631669_399_CDS_ENSG00000118246_ENST00000403094|human|control|control (ssRNA) RNA: GGGAGUUCUACAGUCCGACGAUCAAAAAUGAAUGCAUCCUGAAAGAGAUAUCUAAUGAUAUCAGUUGAUUGCAUUCUGUUAUGAAAGUUAUUUAAAAUGUUCCAGUUUGAAUGAACUAUUUUUGGUUUGCAAAGUCCCAAACACAACAGAGGAUUGAGCAUCA

1. 9.9
2. 0.397

Each recorded value in this set is attributed to paper PMC12136788.
